targetUnderTest: HLA-A*26:01
methodDescription: IEDB peptide-MHC binding, purified MHC/competitive/radioactivity; filed as Kd, often an IC50 or EC50 that approximates it; bounds were set here for any values at or beyond the usual limits of such assays
conditionNotes: source organism: Dengue virus 1 Brazil/97-11/1997
readoutName: pKd
Reminder that pKd means the negative base-10 logarithm of the concentration expressed in mol/L.

[
  {
    "seq": "TVITPMMRH",
    "obsValue": 5.77
  }
]

Next sequence, please.
Fill blank: measured pKd of the sequence `EKSAAIDGEY` is ____.
5.69

====

targetUnderTest: HLA-B*15:17
methodDescription: IEDB peptide-MHC binding, purified MHC/competitive/fluorescence; filed as Kd, often an IC50 or EC50 that approximates it; bounds were set here for any values at or beyond the usual limits of such assays
conditionNotes: source organism: Escherichia coli E22
pKd: −log10 of the molar value.
readoutName: pKd

Fill blank: measured pKd of the sequence `YQTYVSPGA` is ____.
≤ 4.70

====

targetUnderTest: HLA-A*11:01
methodDescription: IEDB peptide-MHC binding, purified MHC/direct/fluorescence; filed as Kd, often an IC50 or EC50 that approximates it; bounds were set here for any values at or beyond the usual limits of such assays
conditionNotes: source organism: Salmonella enterica
pKd: −log10 of the molar value.
readoutName: pKd

Fill blank: measured pKd of the sequence `FPASHMATY` is ____.
≤ 4.70

====

targetUnderTest: HLA-A*31:01
methodDescription: IEDB peptide-MHC binding, purified MHC/competitive/radioactivity; filed as Kd, often an IC50 or EC50 that approximates it; bounds were set here for any values at or beyond the usual limits of such assays
conditionNotes: source organism: Mammarenavirus brazilense
readoutName: Kd
Value and unit, in that order.

Fill blank: measured Kd of the sequence `KCFGNTALAK` is ____.
972 nM

====

targetUnderTest: HLA-A*23:01
methodDescription: IEDB peptide-MHC binding, purified MHC/competitive/radioactivity; filed as Kd, often an IC50 or EC50 that approximates it; bounds were set here for any values at or beyond the usual limits of such assays
conditionNotes: source organism: Dengue virus 2 Jamaica/1409/1983
Recorded pKd values for a group of sequences are listed next.
Reminder that pKd means the negative base-10 logarithm of the concentration expressed in mol/L.

[
  {
    "seq": "WYMWLGARFL",
    "pKd": 7.31
  }
]

Fill blank: measured pKd of the sequence `HWVPTSRTTW` is ____.
6.13

====

targetUnderTest: HLA-A*68:02
methodDescription: IEDB peptide-MHC binding, purified MHC/competitive/radioactivity; filed as Kd, often an IC50 or EC50 that approximates it; bounds were set here for any values at or beyond the usual limits of such assays
conditionNotes: source organism: Lassa virus Josiah
readoutName: Kd (µM)
Provide only the numeric value, understood in µM.

Fill blank: measured Kd of the sequence `VLIALSVLAV` is ____.
3.75

====

targetUnderTest: HLA-B*15:01
methodDescription: IEDB peptide-MHC binding, purified MHC/direct/fluorescence; filed as Kd, often an IC50 or EC50 that approximates it; bounds were set here for any values at or beyond the usual limits of such assays
conditionNotes: source organism: Yersinia pestis
readoutName: Kd (nM)
Provide only the numeric value, understood in nM.

Fill blank: measured Kd of the sequence `FQLYSDLAH` is ____.
68.2

====

targetUnderTest: HLA-B*53:01
methodDescription: IEDB peptide-MHC binding, purified MHC/competitive/radioactivity; filed as Kd, often an IC50 or EC50 that approximates it; bounds were set here for any values at or beyond the usual limits of such assays
conditionNotes: source organism: Vaccinia virus Copenhagen
readoutName: pKd
Reminder that pKd means the negative base-10 logarithm of the concentration expressed in mol/L.

// fetch HLA-B*53:01 pKd for `FILGIIITV`
5.26

====

targetUnderTest: HLA-B*39:01
methodDescription: IEDB peptide-MHC binding, purified MHC/direct/fluorescence; filed as Kd, often an IC50 or EC50 that approximates it; bounds were set here for any values at or beyond the usual limits of such assays
conditionNotes: source organism: Salmonella enterica subsp. enterica serovar Typhimurium str. LT2
pKd: −log10 of the molar value.
readoutName: pKd

// fetch HLA-B*39:01 pKd for `FPASHMATY`
≤ 4.70

====

targetUnderTest: HLA-A*02:03
methodDescription: IEDB peptide-MHC binding, purified MHC/competitive/radioactivity; filed as Kd, often an IC50 or EC50 that approximates it; bounds were set here for any values at or beyond the usual limits of such assays
conditionNotes: source organism: Vaccinia virus WR
readoutName: pKd
Reminder that pKd means the negative base-10 logarithm of the concentration expressed in mol/L.

Look over these answered cases.
[
  {
    "seq": "CIVQSVLRDI",
    "pKd": 6.80
  },
  {
    "seq": "MMQNDYGGM",
    "pKd": 5.56
  },
  {
    "seq": "TQVKELGIAI",
    "pKd": 6.15
  },
  {
    "seq": "KIYTLIYRQL",
    "pKd": 5.99
  },
  {
    "seq": "LAYYNSCML",
    "pKd": 4.81
  }
]

Fill blank: measured pKd of the sequence `VQYRILPMII` is ____.
6.22

Quick one: `DINVIGLIV`
5.39

Quick one: `AAIDRQVSV`
7.73

Quick one: `ILRNYLRLYI`
9.05

Quick one: `LVKESMASL`
8.02

====

targetUnderTest: HLA-A*31:01
methodDescription: IEDB peptide-MHC binding, purified MHC/direct/fluorescence; filed as Kd, often an IC50 or EC50 that approximates it; bounds were set here for any values at or beyond the usual limits of such assays
conditionNotes: source organism: Escherichia coli O157:H7
readoutName: Kd

// fetch HLA-A*31:01 Kd for `YLGTPNNTY`
≥ 20 µM

====

targetUnderTest: HLA-B*15:17
methodDescription: IEDB peptide-MHC binding, purified MHC/direct/fluorescence; filed as Kd, often an IC50 or EC50 that approximates it; bounds were set here for any values at or beyond the usual limits of such assays
conditionNotes: source organism: Giardia lamblia ATCC 50803
readoutName: pKd
Reminder that pKd means the negative base-10 logarithm of the concentration expressed in mol/L.

Fill blank: measured pKd of the sequence `DSPATLSAY` is ____.
5.26

====

targetUnderTest: HLA-B*08:01
methodDescription: IEDB peptide-MHC binding, purified MHC/direct/fluorescence; filed as Kd, often an IC50 or EC50 that approximates it; bounds were set here for any values at or beyond the usual limits of such assays
conditionNotes: source organism: Giardia lamblia ATCC 50803
readoutName: Kd (nM)
Provide only the numeric value, understood in nM.

Fill blank: measured Kd of the sequence `QHTRRVSVL` is ____.
534

====

targetUnderTest: HLA-A*29:02
methodDescription: IEDB peptide-MHC binding, purified MHC/competitive/fluorescence; filed as Kd, often an IC50 or EC50 that approximates it; bounds were set here for any values at or beyond the usual limits of such assays
conditionNotes: source organism: Cryptosporidium parvum Iowa II
readoutName: pKd
Reminder that pKd means the negative base-10 logarithm of the concentration expressed in mol/L.

Fill blank: measured pKd of the sequence `KIVPLPPMY` is ____.
6.56

====

Recorded pKd values for a group of sequences are listed next.
targetUnderTest: HLA-A*03:01
methodDescription: IEDB peptide-MHC binding, purified MHC/competitive/radioactivity; filed as Kd, often an IC50 or EC50 that approximates it; bounds were set here for any values at or beyond the usual limits of such assays
conditionNotes: source organism: Dengue virus 1 Brazil/97-11/1997
Reminder that pKd means the negative base-10 logarithm of the concentration expressed in mol/L.

[
  {
    "seq": "VTFKTAHAK",
    "pKd": 8.38
  },
  {
    "seq": "ALFEPEREK",
    "pKd": 7.23
  },
  {
    "seq": "LAMGIMMLK",
    "pKd": 7.12
  }
]

Next sequence, please.
Fill blank: measured pKd of the sequence `RVIDPRRCLK` is ____.
8.06

====

targetUnderTest: HLA-A*02:01
methodDescription: IEDB peptide-MHC binding, purified MHC/competitive/fluorescence; filed as Kd, often an IC50 or EC50 that approximates it; bounds were set here for any values at or beyond the usual limits of such assays
conditionNotes: source organism: Pan troglodytes
readoutName: Kd (nM)
Provide only the numeric value, understood in nM.

// fetch HLA-A*02:01 Kd for `YYFSYPLFV`
130

====

targetUnderTest: HLA-A*69:01
methodDescription: IEDB peptide-MHC binding, purified MHC/competitive/fluorescence; filed as Kd, often an IC50 or EC50 that approximates it; bounds were set here for any values at or beyond the usual limits of such assays
conditionNotes: source organism: Entamoeba dispar SAW760
pKd: −log10 of the molar value.
readoutName: pKd

Fill blank: measured pKd of the sequence `LMTHTWHAK` is ____.
≤ 4.70
